- Tested on: rat
- test_protocol: Localised carrageenan-induced oedema
- Format: in vivo
- condition_summary: 100 mg/kg oral at -1 h, 0 h, +2.5 h, 2 h after carrageenan, read-out: Pourcentage d'activité anti-inflammatoire 2ème heure
- Method: Une solution de carragénine (0,1 ml), à 1 %, est injectée dans les fléchisseurs métatarsiens de la patte postérieure droite du rat au temps 0. Les animaux du lot traité reçoivent en outre, par la voie orale, 100 mg par kg du dérivé à tester respectivement 1 heure avant, en même temps que l'injection de l'agent phlogogène, puis 1 heure et 2 heures et demi après. […]
measurement_name: inhibition in vivo at 100 mg/kg (%)
Quick reminder: number only, in %, skip the unit.

The reported value for O=C(NCc1ccncc1)c1cc2sccc2cn1 in terms of inhibition in vivo at 100 mg/kg is 47

The reported value for O=C(c1cc2sccc2cn1)N1CCN(c2ccccc2Cl)CC1 in terms of inhibition in vivo at 100 mg/kg is 49

The reported value for CNC(=O)c1cc2sccc2cn1 in terms of inhibition in vivo at 100 mg/kg is 42

The reported value for CCNC(=O)c1cc2sccc2cn1 in terms of inhibition in vivo at 100 mg/kg is 46

The reported value for CC(C)NC(=O)c1cc2ccsc2cn1 in terms of inhibition in vivo at 100 mg/kg is 49

The reported value for O=C(NCc1ccccc1)c1cc2ccsc2cn1 in terms of inhibition in vivo at 100 mg/kg is 40

The reported value for NC(=O)c1cc2ccsc2cn1 [Dérivé 32, Carbamoyl-5 thiéno [2,3-c] pyridine] in terms of inhibition in vivo at 100 mg/kg is 41

The reported value for O=C(NCc1ccncc1)c1cc2ccsc2cn1 in terms of inhibition in vivo at 100 mg/kg is 48

The reported value for COc1ccccc1N1CCN(C(=O)c2cc3ccsc3cn2)CC1 in terms of inhibition in vivo at 100 mg/kg is 45

The reported value for O=C(NCCc1ccccc1)c1cc2sccc2cn1 in terms of inhibition in vivo at 100 mg/kg is 45

The reported value for CCN(CC)CCNC(=O)c1cc2sccc2cn1 in terms of inhibition in vivo at 100 mg/kg is 46

The reported value for O=C(Nc1cccc(C(F)(F)F)c1)c1cc2sccc2cn1 in terms of inhibition in vivo at 100 mg/kg is 46

The reported value for O=C(c1cc2sccc2cn1)N1CCCC1 in terms of inhibition in vivo at 100 mg/kg is 42

---

- System: rat
- test_protocol: Localised carrageenan-induced oedema
- Type: in vivo
- condition_summary: 100 mg/kg oral at -1 h, 0 h, +2.5 h, 5 h after carrageenan, read-out: Pourcentage d'activité anti-inflammatoire 5ème heure
Kindly supply the reported inhibition in vivo at 100 mg/kg values for the records listed here.
Quick reminder: number only, in %, skip the unit.

The reported value for NC(=O)c1cc2ccsc2cn1 [Dérivé 32, Carbamoyl-5 thiéno [2,3-c] pyridine] in terms of inhibition in vivo at 100 mg/kg is 47

The reported value for COc1ccccc1N1CCN(C(=O)c2cc3ccsc3cn2)CC1 in terms of inhibition in vivo at 100 mg/kg is 53

The reported value for O=C(NCc1ccccc1)c1cc2ccsc2cn1 in terms of inhibition in vivo at 100 mg/kg is 51

The reported value for O=C(c1cc2sccc2cn1)N1CCCC1 in terms of inhibition in vivo at 100 mg/kg is 51

The reported value for O=C(NCc1ccncc1)c1cc2ccsc2cn1 in terms of inhibition in vivo at 100 mg/kg is 54

The reported value for O=C(NCCc1ccccc1)c1cc2sccc2cn1 in terms of inhibition in vivo at 100 mg/kg is 53

The reported value for CCN(CC)CCNC(=O)c1cc2sccc2cn1 in terms of inhibition in vivo at 100 mg/kg is 55

The reported value for CNC(=O)c1cc2sccc2cn1 in terms of inhibition in vivo at 100 mg/kg is 47

The reported value for O=C(Nc1cccc(C(F)(F)F)c1)c1cc2sccc2cn1 in terms of inhibition in vivo at 100 mg/kg is 52

The reported value for CCNC(=O)c1cc2sccc2cn1 in terms of inhibition in vivo at 100 mg/kg is 58

The reported value for CC(C)NC(=O)c1cc2ccsc2cn1 in terms of inhibition in vivo at 100 mg/kg is 56

The reported value for O=C(c1cc2sccc2cn1)N1CCN(c2ccccc2Cl)CC1 in terms of inhibition in vivo at 100 mg/kg is 54

The reported value for O=C(NCc1ccncc1)c1cc2sccc2cn1 in terms of inhibition in vivo at 100 mg/kg is 55

---

- Tested on: rat
- test_protocol: Localised carrageenan-induced oedema
- Assay type: in vivo
- condition_summary: 100 mg/kg oral at -1 h, 0 h, +2.5 h, 1 h after carrageenan, read-out: Pourcentage d'activité anti-inflammatoire 1ère heure
measurement_name: inhibition in vivo at 100 mg/kg

The reported value for CCNC(=O)c1cc2sccc2cn1 [Dérivé 4] in terms of inhibition in vivo at 100 mg/kg is 41%

The reported value for O=C(NCc1ccncc1)c1cc2ccsc2cn1 [Dérivé 21] in terms of inhibition in vivo at 100 mg/kg is 40%

The reported value for O=C(Nc1cccc(C(F)(F)F)c1)c1cc2sccc2cn1 [Dérivé 25] in terms of inhibition in vivo at 100 mg/kg is 39%

The reported value for CC(C)NC(=O)c1cc2ccsc2cn1 [Dérivé 5] in terms of inhibition in vivo at 100 mg/kg is 43%

The reported value for CCN(CC)CCNC(=O)c1cc2sccc2cn1 [Dérivé 18] in terms of inhibition in vivo at 100 mg/kg is 41%

The reported value for NC(=O)c1cc2ccsc2cn1 [Dérivé 32, Carbamoyl-5 thiéno [2,3-c] pyridine] in terms of inhibition in vivo at 100 mg/kg is 34%

The reported value for O=C(c1cc2sccc2cn1)N1CCN(c2ccccc2Cl)CC1 [Dérivé 27] in terms of inhibition in vivo at 100 mg/kg is 41%
